# Test system: BDF1 mice, B16 melanoma ip, median survival T/C
# ASSAY OVERVIEW: NCI In Vivo Anticancer Drug Screen. Data for tumor model B16 Melanoma (intraperitoneal) in B6D2F1 (BDF1) mice
# CONDITIONS: endpoint: median survival time; dose: 6.25 mg/kg/injection; schedule: Q01DX009 (ip); vehicle: water
Inconclusive results and toxic doses are left out. Rule for the calls: active = survival T/C of 150% or more; inactive = T/C below 125% in these data.
Tick one outcome: TRUE (active), FALSE (inactive)

Illustrative cases are given below, each with its answer.
> print(dat)
                               input.smiles  assigned.class
1     C1CC[N-]CC1.[Cl][Pt+2][Cl].[NH-]C1CC1            TRUE
2      O=C(O)C(=O)O.O=C(O)C(=O)O.OO.OO.[Nb]           FALSE
3  CCCC1CC[N-]CC1.CCCC1CC[N-]CC1.CCCC1CC[N-]CC1.CCCC1CC[N-]CC1.CS(C)=O.CS(C)=O.[Cl-].[Cl-].[Cl-].[Cl-].[Cl][Rh][Cl].[Rh+3]           FALSE
4  O=C1c2ccccc2C(=O)N1CC[P+](c1ccccc1)(c1ccccc1)c1ccccc1           FALSE

Query block: What classification did CC(=O)ON1C(=O)C=CC1=O end up with in this test?
Result block: FALSE

Query block: What classification did COc1cc2c(cc1OC)/C(=N/N)CCC2 end up with in this test?
Result block: FALSE

###

# System: BDF1 mice, B16 melanoma ip, median survival T/C
# ASSAY OVERVIEW: NCI In Vivo Anticancer Drug Screen. Data for tumor model B16 Melanoma (intraperitoneal) in B6D2F1 (BDF1) mice
# CONDITIONS: endpoint: median survival time; dose: 6.25 mg/kg/injection; schedule: Q01DX009 (ip); vehicle: saline
Inconclusive results and toxic doses are left out. Rule for the calls: active = survival T/C of 150% or more; inactive = T/C below 125% in these data.
Tick one outcome: 1 (yes) (active), 0 (no) (inactive)

Illustrative cases are given below, each with its answer.
> print(dat)
                                   compound                             target.entity  assigned.class
1                             N#CCCc1ccccc1  BDF1 mice, B16 melanoma ip, median survival T/C          0 (no)
2  CNc1nc2c(N)ncnc2n1C1OC(CO)C(O)C1O (stereo not drawn)  BDF1 mice, B16 melanoma ip, median survival T/C          0 (no)
3       COc1ccc2c(=O)c(C)c(C)oc2c1CN1CCOCC1  BDF1 mice, B16 melanoma ip, median survival T/C          0 (no)
4  CC(=O)OC(CC(=O)CC(O)(C(F)(F)F)C(F)(F)F)(C(F)(F)F)C(F)(F)F  BDF1 mice, B16 melanoma ip, median survival T/C          0 (no)
5                   O=c1[nH]cc(F)c(=O)[nH]1  BDF1 mice, B16 melanoma ip, median survival T/C          0 (no)
6  CCC(NC(=O)OC(C)(C)C)C(=O)O (stereo not drawn)  BDF1 mice, B16 melanoma ip, median survival T/C          0 (no)

Query block: What classification did Nc1nc(=O)n(C2OC(CO)C(O)C2O)cc1F (stereo not drawn) end up with in this test?
Result block: 0 (no)

Query block: What classification did [Br][Pt].[NH-]CC[N-]CC[NH-] end up with in this test?
Result block: 0 (no)

Query block: What classification did CNCC(C)CN1CCCCCc2ccccc21 (stereo not drawn) end up with in this test?
Result block: 0 (no)

Query block: What classification did CN(C)C1CC1c1ccccc1 (stereo not drawn) end up with in this test?
Result block: 0 (no)

Query block: What classification did COc1ccc2c(ccc[n+]2C)c1 end up with in this test?
Result block: 0 (no)

This collection of values is drawn from PubChem BioAssay AID192.
